# System name: T1, 4H3628-AA
# T1 chain: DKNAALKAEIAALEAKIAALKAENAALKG
# Experiment summary: two-hybrid library CCmax;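 note: natural log of median RNA to DNA barcode read ratio; higher means stronger binding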
# Test parameters: mean of both orientations
Measured endpoint: interaction score

DKIAALKAKNAALKAKNAALKAEIAALKG [4H3066-AA]    -1.85

P. DENAALKAKIAALEAENAALEAEIAALEG [4H1809-AA]
Q. DKIAALKAKNAALEAKIAALKAKNAALEG [4H2991-AA]
Incoming: Given the two records P and Q , choose the one whose interaction score value is lower. Please respond with the label that marks your chosen entry.
Outgoing: Q
